test system: NCI-H1944; experiment: normalised cell viability (NPI; 0 = phenylarsine oxide control, 1 = DMSO control) (fraction of DMSO control); NCI-H1944 is a non-small cell lung cancer line; higher = more viable cells (less compound toxicity); details: glucocorticoid arm: hydrocortisone 2.75 uM co-treatment; compound 5 µM; 6 days;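 note: CTB read-out in 384-well plates, triplicate wells, NPI normalised per plate against 1 µM phenylarsine oxide (0) and 0.1% DMSO (1) controls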
Where a name gives a salt, the structure may show the parent alone. The full ranking holds about 1,900 compounds; the median of “normalised cell viability (NPI; 0 = phenylarsine oxide control, 1 = DMSO control)” is about 1, and the lowest 2% start at about 0.039. The entries come from a sample that favours the lowest values as a whole.
Experimental Endpoint: normalised cell viability
Give your answer as a number; write no unit.

Measured normalised cell viability, Clc1ccc(N2CC3CCC(C2)N3)nn1 : 0.979

Lab note: measured normalised cell viability of CCCN1CCC[C@@H]2Cc3n[nH]cc3C[C@H]21 [(-)-Quinpirole hydrochloride] was 0.992

Measured normalised cell viability of O=C1C=CC(=O)C=C1 [p-Benzoquinone] : 1.01

GET /value?item= CCN(CC)C(=O)N[C@H]1C[C@@H]2c3cccc4[nH]cc(c34)C[C@H]2N(C)C1 [S(+)-Terguride] &field=normalised cell viability returns 1.01

The molecule O=[N+]([O-])c1ccc(O[C@@H]2O[C@H](CO)[C@@H](O)[C@H](O)[C@H]2F)c([N+](=O)[O-])c1 [2,4-Dinitrophenyl 2-fluoro-2-deoxy-beta-D-glucopyranoside] showed normalised cell viability equal to 0.989

Memo: CCCN(CCC)C1CCc2cccc(O)c2C1 (racemic) [(±)-8-Hydroxy-DPAT hydrobromide] , reported normalised cell viability: 1.01

What the record says about OC[C@H]1O[C@@H](n2cnc3cc(Cl)c(Cl)cc32)[C@H](O)[C@@H]1O [5,6-Dichlorobenzimidazole riboside] : normalised cell viability is 0.998

The molecule CS(=N)(=O)CC[C@H](N)C(=O)O (stereo partly drawn) [L-Methionine sulfoximine] showed normalised cell viability equal to 1.01

The molecule CCCN1CC[C@@H]2c3cc(O)ccc3CC[C@@H]21 (racemic) [cis(+/-)-8-OH-PBZI hydrobromide] showed normalised cell viability equal to 0.975

The molecule listed as C[C@H]1CNCCc2ccc(Cl)cc21 [Lorcaserin HCl] has a reported normalised cell viability of 1.02

Summary for this molecule, NC(CCCCCP(=O)(O)O)C(=O)O (racemic) [(±)-2-Amino-7-phosphonoheptanoic acid] : normalised cell viability is 0.976
